Quick reference: herbicidal effect rating, CYPIR of the listed items.
Tested on: Cyperus iria
Assay: Preemergence weed control under flooded paddy conditions, CYPIR (Rice Flatsedge); further: meaning of each grade not given here
Format: in vivo
Conditions: 0.0625 kg/ha; preemergence, flooded paddy; rated three to four weeks after treatment

# example entries with known answers
COc1ccc(C)cc1-c1nsc2ccc(-n3c(=O)cc(C)n(C)c3=O)cc12; 2.0
CCN(CC)C(=O)COc1ccc(C)cc1-c1nsc2ccc(-n3c(=O)cc(C(F)(F)F)n(C)c3=O)cc12; 0.0
Cc1ccc(OC(C)C)c(-c2nsc3ccc(-n4c(=O)cc(C(F)(F)F)n(C)c4=O)cc23)c1; 7.0

Which herbicidal effect rating, CYPIR value belongs to COc1cc(C)c(C)c(C)c1-c1nsc2ccc(-n3c(=O)cc(C(F)(F)F)n(C)c3=O)cc12 ?
0.0

Given the entry CC(=O)OCc1nsc2ccc(-n3c(=O)cc(C(F)(F)F)n(C)c3=O)cc12 , report its measured herbicidal effect rating, CYPIR.
6.0

# lookup: herbicidal effect rating, CYPIR of COC(=O)C(C)Oc1c(C)cc(C)cc1-c1nsc2ccc(-n3c(=O)cc(C(F)(F)F)n(C)c3=O)cc12 (centres unmarked)
4.0

I am curious: what herbicidal effect rating, CYPIR value has been reported for COC(=O)COc1noc2ccc(-n3c(=O)cc(C(F)(F)F)n(C)c3=O)cc12 ?
9.0

# input compound: Cc1cc(O)c(-c2nsc3ccc(-n4c(=O)cc(C(F)(F)F)n(C)c4=O)cc23)cc1C ; wanted: its herbicidal effect rating, CYPIR
9.0
